System: Leishmania donovani
Assay: Antileishmanial activity against Leishmania donovani NHOM/IN/80/DD8 promastigotes assessed as decrease in parasite growth after 72 hrs by MTT assay
Assay type: functional, organism-based
Conditions: NHOM/IN/80/DD8, 72 h
// NB: equality with 700 µM counts as not fulfilled; only IC50 strictly below is fulfilled

Reference set, count: 2
In [3]: df
Out[3]:
                                   compound            cat
0  COc1ccc(/C=N/NC(=O)CN2CCc3sccc3C2)c(OC)c1  not fulfilled
1   O=C(CN1CCc2sccc2C1)N/N=C/c1ccc(O)c(O)c1      fulfilled

Exam item: Consider the compound COc1cccc(N)c1/C=N/NC(=O)CN1CCc2sccc2C1 . Is its IC50 strictly less than 700 µM?
Marked response: not fulfilled

Exam item: Then N=C(N)c1ccc(OCCCCCOc2ccc(C(=N)N)cc2)cc1 [PENTAMIDINE] ?
Marked response: fulfilled

Exam item: Then COc1ccc(/C=N/NC(=O)CN2CCc3sccc3C2)cc1OC ?
Marked response: fulfilled

----------
Test system: Leishmania donovani
Assay: Antileishmanial activity against Leishmania donovani NHOM/IN/80/DD8 promastigotes assessed as decrease in parasite growth after 72 hrs by MTT assay
Format: functional, organism-based
Settings: NHOM/IN/80/DD8, 72 h
// NB: equality with 600 µM counts as false (0); only IC50 strictly below is true (1)

Reference set, count: 5
In [3]: df
Out[3]:
                                smiles_text        cat
0  COc1ccc(OC)c(/C=N/NC(=O)CN2CCc3sccc3C2)c1  false (0)
1    N#Cc1ccc(/C=N/NC(=O)CN2CCc3sccc3C2)cc1  false (0)
2  CN(C)c1ccc(/C=N/NC(=O)CN2CCc3sccc3C2)cc1   true (1)
3       O=C(CN1CCc2sccc2C1)N/N=C/c1ccccc1Cl   true (1)
4   O=C(CN1CCc2sccc2C1)N/N=C/c1c(Cl)cccc1Cl  false (0)

Turning now to a further compound:
Exam item: Consider the compound O=C(CN1CCc2sccc2C1)N/N=C/c1ccc(Cl)cc1 . Is its IC50 strictly less than 600 µM?
Marked response: false (0)
